- test.description: endothelial E-selectin expression blockers – imaging, HUVEC, immunofluorescence, MLSMR starter and 10KST1 sets, primary screen (AID 487);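 further: 100% = median nuclei count of all wells on the same plate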
- experimental.conditions: HUVEC TNFalpha-induced E-selectin immunofluorescence imaging, at 2 µM; measured here: cell number, toxicity
// reported nuclei count per item
// return numeric value only (unit: %, not printed)

> print(dat)
                                   compound  measured.attribute  endpoint.unit  numeric.readout
1        CCN1C(=O)/C(=C/N2CCc3ccccc32)SC1=S        nuclei count              %              100
2  Cc1ccc(-c2nnn(CC(=O)N(CC(=O)NCC3CCCO3)c3ccccc3)n2)o1 (stereo unspecified)        nuclei count              %              106
3            Cc1cc(C(=O)Nc2cccc(O)c2)c(C)o1        nuclei count              %              112
4  COc1cc(C2C(C#N)=C(N)Oc3cc(N)ccc32)cc(OC)c1OC (stereo unspecified)        nuclei count              %             80.5
5  COc1ccc(N(CC(=O)N2CCN(Cc3ccc4c(c3)OCO4)CC2)S(C)(=O)=O)cc1OC        nuclei count              %              112

Now examine the next entry.
Problem: Would you mind telling me what nuclei count value was observed for Cc1cc2c(cc(C(=O)NCc3cccnc3)n2Cc2ccc(Cl)cc2)o1 ?
Result: 99.8

Where these numbers come from: PubChem BioAssay
